Data provenance is patent US11661397B2.

- Tested on: HCT-116 cells
- TEST NAME: Inhibition of sphere-forming ability of cancer cells (Test Example 1)
- Format: cell-based
- TEST SETTINGS: Homo sapiens, 96 h; HCT-116 spheres, non-adherent, serum-free, 4 days, CellTiter-Glo; read-out: Sphere IC50 value (concentration for 50% inhibition of cell proliferation)
QUANTITY: IC50 (nM)
Note: unit nM is implicit; provide only the numeric part.

Sample O=C(Nc1cn(Cc2cc(F)cc(Br)c2)cn1)c1cnc(CO)c(C(F)F)c1 — what was its IC50?
50

Likewise for O=C(Nc1cn(Cc2ccc(C(F)(F)F)c(F)c2)cn1)c1cnc(CO)c(C(F)F)c1 ?
380
